Molecular target: T1, CRF2R
T1 sequence (Q13324 whole entry, species assumed, looked up): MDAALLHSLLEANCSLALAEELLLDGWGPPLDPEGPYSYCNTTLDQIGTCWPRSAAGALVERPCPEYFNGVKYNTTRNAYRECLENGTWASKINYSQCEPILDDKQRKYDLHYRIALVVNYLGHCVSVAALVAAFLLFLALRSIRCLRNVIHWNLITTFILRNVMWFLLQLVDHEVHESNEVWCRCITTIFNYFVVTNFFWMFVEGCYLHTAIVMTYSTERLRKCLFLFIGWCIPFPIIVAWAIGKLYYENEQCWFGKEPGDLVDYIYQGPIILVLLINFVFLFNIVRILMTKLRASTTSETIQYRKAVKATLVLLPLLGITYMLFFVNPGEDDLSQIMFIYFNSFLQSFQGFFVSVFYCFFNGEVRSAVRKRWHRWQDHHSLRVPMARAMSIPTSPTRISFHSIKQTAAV
Test: cell-based or functional assay
Ends that are not written are not given here.
Reported Metric: CRF2R EC50 (nM)
Kindly provide the numeric value in nM only, without the unit symbol.

Take a look at these entries with their results.
Binder	CRF2R EC50 [nM]
ZGPPISIDLPFVLLRKMIEIEKQEKEKQQAANNRLLLDTI (C-terminal amide) [SEQ ID NO 190]	39.6
IVLSLDVPIGLLQILLEQERAEAAREQATTNARILARV-NH2 [SEQ ID NO 113]	11.3
ZGPPISIDLPYTLLRKMIEIEKQEKEKQQAANNRLLLDTI (C-terminal amide) [SEQ ID NO 200]	8.8

// switching to the query binder
Query CRF2R EC50 for ZGPPISIDLSLELLRKMIEQARARAAREQATTNARILARV (C-terminal amide) [SEQ ID NO 156] 9.29
